test: Stability time course in FBS media with or without acetonitrile; assay type: in vitro ADME; conditions: bovine, cell culture media containing FBS; fbs-media, 240 min
Endpoint Name: remaining at 4 h (%)

Nc1ncccc1C(=O)OCC(=O)Nc1ccc(Cl)cc1F [ZINC12909780]; 85

* * *

experiment: Mouse PK, i.v. and oral gavage; assay type: in vivo; settings: mouse, serum, iv, 2 mg/kg, IV 2mg/Kg; single mice and Avg.
Endpoint Name: half-life (h)

O=C(CNCCc1cc(F)cc(F)c1)Nc1ccc(Cl)cn1 [SR12460]; 3.42

* * *

assay: Plasma and tissue concentrations 2 h after a single i.p. injection; type: in vivo, mouse; settings: male, C57BL/6J, mouse, muscle, ip, 10 mg/kg, 2 h post single i.p. 10 mg/kg; single mice; read-out: Concentration in muscle
Endpoint Name: concentration at 2 h

O=C(CNCCc1cc(F)cc(F)c1)Nc1ccc(Cl)cn1; 0.846 µg/mL

* * *

experiment: Stability time course in FBS media with or without acetonitrile; assay type: in vitro ADME; conditions: bovine, FBS media containing acetonitrile; fbs-media+acetonitrile, 240 min
Endpoint Name: remaining at 4 h

Nc1ncccc1C(=O)OCC(=O)Nc1ccc(Cl)cc1F [ZINC12909780]; 104%

* * *

Item-by-item account of half-life
Experiment: Mouse PK, i.v. and oral gavage
Format: in vivo
Settings: mouse, serum, po, 10 mg/kg, PO 10mg/Kg; single mice and Avg.
Experimental: Supplementary file pbio.2004663.s002.tif: S1 Fig IC50 and the complete pharmacokinetic profiles of NBD mimetics. (A) Dose-dependent curve of NBD mimetics ranging from 0 to 150 μM was determined by NF-κB luciferase assays in HEK293 cells. (B) Complete pharmacokinetic profiles of SR12460 and SR12343 administered i.v. or by oral gavage in mice. Underlying data can be found in S1 Data. […]
Endpoint Name: half-life (h)

O=C(CNCCc1cc(F)cc(F)c1)Nc1ccc(Cl)cn1; 3.31
O=C(CNc1ccc(Cl)cn1)NCCc1cccc(Br)c1; 0.58

* * *

experiment: Plasma and tissue concentrations 2 h after a single i.p. injection; assay type: in vivo, mouse; conditions: male, C57BL/6J, mouse, brain, ip, 10 mg/kg, 2 h post single i.p. 10 mg/kg; single mice; read-out: Concentration in brain
Endpoint Name: concentration at 2 h (ng/mL)

O=C(CNc1ccc(Cl)cn1)NCCc1cccc(Br)c1; 31.8

* * *

test: Stability time course in FBS media with or without acetonitrile; assay type: in vitro ADME; details: bovine, FBS media containing acetonitrile; fbs-media+acetonitrile, 30 min
Endpoint Name: remaining at 0.5 h (%)

Nc1ncccc1C(=O)OCC(=O)Nc1ccc(Cl)cc1F; 103

* * *

assay: Stability time course in FBS media with or without acetonitrile; assay type: in vitro ADME; conditions: bovine, FBS media containing acetonitrile; fbs-media+acetonitrile, 15 min
Endpoint Name: remaining at 0.25 h

Nc1ncccc1C(=O)OCC(=O)Nc1ccc(Cl)cc1F; 94.8%

* * *

Here the recorded bioavailability is given for each entry.
assay: Mouse PK, i.v. and oral gavage; assay type: in vivo; details: mouse, serum; PO 10mg/Kg versus IV; Avg.
Endpoint Name: bioavailability (%)

O=C(CNCCc1cc(F)cc(F)c1)Nc1ccc(Cl)cn1 [SR12460]; 20.1
O=C(CNc1ccc(Cl)cn1)NCCc1cccc(Br)c1 [SR12343]; 0.86

* * *

assay: Stability time course in FBS media with or without acetonitrile; assay type: in vitro ADME; conditions: bovine, cell culture media containing FBS; FBS-media
Endpoint Name: half-life

Nc1ncccc1C(=O)OCC(=O)Nc1ccc(Cl)cc1F; 15 h

* * *

assay: Mouse PK, i.v. and oral gavage; assay type: in vivo; settings: mouse, serum, po, 10 mg/kg, PO 10mg/Kg; single mice and Avg.; read-out: AUCINF_obs (converted)
Endpoint Name: AUC(0-inf)

O=C(CNc1ccc(Cl)cn1)NCCc1cccc(Br)c1; 193 ng·h/mL

* * *

test: Mouse PK, i.v. and oral gavage; type: in vivo; conditions: mouse, serum, iv, 2 mg/kg, IV 2mg/Kg; single mice and Avg.; read-out: MRTINF_obs
Endpoint Name: MRT inf (h)

O=C(CNCCc1cc(F)cc(F)c1)Nc1ccc(Cl)cn1; 4.49

* * *

experiment: Stability time course in FBS media with or without acetonitrile; format: in vitro ADME; conditions: bovine, cell culture media containing FBS; fbs-media, 15 min
Endpoint Name: remaining at 0.25 h (%)

Nc1ncccc1C(=O)OCC(=O)Nc1ccc(Cl)cc1F; 101

* * *

Experiment: Mouse PK, i.v. and oral gavage
Assay type: in vivo
Conditions: mouse, serum, iv, 1 mg/kg, IV 1mg/Kg; single mice and Avg.; read-out: Tmax
Description: Supplementary file pbio.2004663.s002.tif: S1 Fig IC50 and the complete pharmacokinetic profiles of NBD mimetics. (A) Dose-dependent curve of NBD mimetics ranging from 0 to 150 μM was determined by NF-κB luciferase assays in HEK293 cells. (B) Complete pharmacokinetic profiles of SR12460 and SR12343 administered i.v. or by oral gavage in mice. Underlying data can be found in S1 Data. […]
Endpoint Name: Tmax (min)

O=C(CNc1ccc(Cl)cn1)NCCc1cccc(Br)c1 [SR12343]; 4.8

* * *

test: Plasma and tissue concentrations 2 h after a single i.p. injection; format: in vivo, mouse; details: male, C57BL/6J, mouse, plasma, ip, 10 mg/kg, 2 h post single i.p. 10 mg/kg; single mice; read-out: Concentration in plasma
Endpoint Name: concentration at 2 h (ng/mL)

O=C(CNc1ccc(Cl)cn1)NCCc1cccc(Br)c1; 14.3
O=C(CNCCc1cc(F)cc(F)c1)Nc1ccc(Cl)cn1; 6520
O=C(COC(=O)Cc1cc(F)cc(F)c1)Nc1ccc(Cl)cn1; 0

Origin of measurements: paper PMC6013238
